Data credit: patent US9676771B2

Reported CC50 by item:
# ASSAY OVERVIEW: in vitro
# Type: cell-based, human
# EXPERIMENTAL PARAMETERS: human, Table 2; 50% reduction in the level of ATP in HOS cells
# number only, unit µM dropped from output

Answered cases to consult:
COMPOUND | MEASUREMENT UNITS | MEASURED VALUE
O=C(NCc1ccc(F)cc1F)c1c(O)c2cccnc2n(O)c1=O [XZ351] | µM | 137
O=C(NCc1ccc(F)c(F)c1)c1c(O)c2cccnc2n(O)c1=O [XZ367] | µM | 192

q: Could you please provide reported CC50 for O=C(NCc1ccc(F)c(Cl)c1)c1c(O)c2cccnc2n(O)c1=O [XZ365] ? Thanks!
a: 102

###

# ASSAY OVERVIEW: in vitro
# Type: cell-based, human
# EXPERIMENTAL PARAMETERS: human, Table 8; 50% reduction in the level of ATP in HOS cells
# Experimental: Cellular Cytotoxicity Assay. On the day of the screen, cells were treated with compounds at the appropriate concentration range chosen and incubated at 37° C. for 48 hrs. Cytotoxicity was measured by monitoring ATP levels via a luciferase reporter assay. […] KaleidaGraph (Synergy Software, Reading, Pa.) was used to perform regression analysis on the data. CC50 values were determined from the fit model.
READOUT NAME: CC50

COMPOUND | CC50
Nc1c(C(=O)NCc2ccc(F)cc2F)c(=O)n(O)c2ncc(CCCCc3ccccc3)cc12 | 12.8 µM

q: Could you please provide reported CC50 for CN(C)CCCc1cnc2c(c1)c(N)c(C(=O)NCc1ccc(F)cc1F)c(=O)n2O ? Thanks!
a: 5 µM

q: Could you please provide reported CC50 for Nc1c(C(=O)NCc2ccc(F)cc2F)c(=O)n(O)c2ncc(CCCOCCO)cc12 ? Thanks!
a: > 250 µM

q: Could you please provide reported CC50 for Nc1c(C(=O)NCc2ccc(F)cc2F)c(=O)n(O)c2ncc(CCS(=O)(=O)c3ccccc3)cc12 ? Thanks!
a: > 250 µM

q: Could you please provide reported CC50 for O=C(NCc1ccc(F)cc1F)c1c(O)c2c(CO)ccnc2n(O)c1=O ? Thanks!
a: > 250 µM

q: Could you please provide reported CC50 for C[C@@H]1CCO[C@H]2Cn3cc(C(=O)NCc4ccc(F)cc4F)c(=O)c(O)c3C(=O)N12 [DTG, dolutegravir, reference compound] ? Thanks!
a: > 250 µM

q: Could you please provide reported CC50 for Nc1c(C(=O)NCc2ccc(F)cc2F)c(=O)n(O)c2ncc(CCCCCCCCO)cc12 ? Thanks!
a: > 250 µM

q: Could you please provide reported CC50 for O=C(NCc1ccc(F)cc1F)c1c(NCCO)c2cc(CCCCCO)cnc2n(O)c1=O ? Thanks!
a: > 250 µM

q: Could you please provide reported CC50 for CS(=O)(=O)CCc1cnc2c(c1)c(N)c(C(=O)NCc1ccc(F)cc1F)c(=O)n2O ? Thanks!
a: 95.4 µM

###

Reported pIC50 by item:
# TEST TARGET: HIV-1 integrase (Human immunodeficiency virus type 1 group M subtype B)
# ASSAY OVERVIEW: biochemical
# Assay type: biochemical
# EXPERIMENTAL PARAMETERS: Table 4; 3′-processing; read-out: IC50 (3^+-Processing)
# Description: In Vitro Integrase Assay. Integrase reactions were carried out by adding drugs or an equivalent volume of 100% dimethyl sulfoxide (DMSO; used as the drug solvent) to a mixture of 20 nM DNA and 400 nM integrase in 50 mM morpholinepropanesulfonic acid (pH 7.2), 7.5 mM MgCl2, and 14 mM 2-mercaptoethanol. […]
# reply with the number alone; pIC50 is -log10 of concentration in mol/L

Answered cases to consult:
COMPOUND | pIC50
COC(=O)CNc1c(C(=O)NCc2ccc(F)cc2F)c(=O)n(O)c2ncccc12 [XZ379] | 6.15
N#Cc1ccc(-c2ccc(Nc3c(C(=O)NCc4ccc(F)cc4F)c(=O)n(O)c4ncccc34)cc2)cc1 [XZ388] | 4.15
O=C(NCc1ccc(F)cc1F)c1c(Nc2ccc(-c3ccccc3)cc2)c2cccnc2n(O)c1=O [XZ385] | 4.28

q: Could you please provide reported pIC50 for O=C(NCc1ccc(F)cc1F)c1c(Nc2ccc3c(c2)Cc2ccccc2-3)c2cccnc2n(O)c1=O [XZ386] ? Thanks!
a: 4.34

q: Could you please provide reported pIC50 for O=C(NCc1ccc(F)cc1F)c1c(NCCCCc2ccccc2)c2cccnc2n(O)c1=O [XZ383] ? Thanks!
a: 4.91

q: Could you please provide reported pIC50 for CN(C)c1c(C(=O)NCc2ccc(F)cc2F)c(=O)n(O)c2ncccc12 [XZ372] ? Thanks!
a: 4.68
